MEASURED ON: T1, Human C5 (human, UniProt P01031 19-1676)
T1 construct: The natural protein has a beta and an alpha chain; also called complement factor 5; complement component 5
ASSAY METHOD TEXT: SPR, mAb captured by anti-hFc, 37C
t½ under 20 min gets 1, anything at or over 20 min gets -1.

Worked set:
BINDER: H4H12168P (antibody, human IgG4, V domains shown) VH: QVQLVESGGGVVQPGGSLRLSCAASGFTFGGHAMHWVRQAPGKGLEWLAVISSDGSNKQYADSVKGRFTISRDNPKNTLYLQMNSLRVGDTAIYYCAKEVAPRYYYYGLDVWGQGTTVTVSS VL: DIQMTQSPSSLSASVGDRVTITCRASQDISNFLAWYQQKPGKVPKLLIYTASTLQSGVPSRFSGSGSGTDFTLTVSSLQPEDVATYYCQKYAGALTFGPGTKVDIK
LABEL CLASS: -1
//
BINDER: H4H12166P10 (antibody, human IgG4, V domains shown, human IgG4 Fc with S108P hinge mutation) VH: QVQLQESGPGLVKPSETLSLTCTVSGDSVSSSYWTWIRQPPGKGLEWIGYIYYSGSSNYNPSLKSRATISVDTSKNQFSLKLSSVTAADTAVYYCAREGNVDTTMIHDYWGQGTLVTVSS VL: AIQMTQSPSSLSASVGDRVTITCRASQGIRNDLGWYQQKPGKAPKLLIYAASSLQSGVPSRFAGRGSGTDFTLTISSLQPEDFATYYCLQDFNYPWHFGQGTKVEIK
LABEL CLASS: 1
//
BINDER: H4H12169P (antibody, human IgG4, V domains shown) VH: EVQLVESGGGLAQPGGSLRLSCAASGFTFRSYAMSWVRQAPGKGPEWVSGIGGNGVTTYYADSVKGRFTISRDNSKNTLFLQMNSLRAEDTAVYYCVQGGLGGYFTGYWGQGTLVTVSS VL: DIQMTQSPSSLSASVGDRVTITCRASQSISTYLNWYQQNPGKAPKLLIFDASSLQSGVPSRFSGSGSGTDFTLTIRGLQPEDFATYYCQQSYSAPLTFGGGTKVEIK
LABEL CLASS: -1

Confirm or reject: t½ of H4H12166P8 (antibody, human IgG4, V domains shown, human IgG4 Fc with S108P hinge mutation) VH: QVQLQESGPGLVKPSETLSLTCTVSGDSVSSSYWTWIRQPPGKGLEWIGYIYYSGSSNYNPSLKSRATISVDTSKNQFSLKLSSVTAADTAVYYCAREGNVDHTMIFDYWGQGTLVTVSS VL: AIQMTQSPSSLSASVGDRVTITCRASQGIRNDLGWYQQKPGKAPKLLIYAASSLQSGVPSRFAGRGSGTDFTLTISSLQPEDFATYYCHQDFNYPWTFGQGTKVEIK lies strictly below 20 min
1

Confirm or reject: t½ of H4H11686N (antibody, human IgG4, V domains shown, also called H2M11686N) VH: QVQLVESGGGLVKPGGSLRLSCAASGFTFSDYYMSWIRQAPGKGLEWVSYISSSGNTIKYADSMKGRFTISRDNAKKSLFVEMNSLRAEDTAVYYCARYKSSSDYFDHWGQGTLVTVSS VL: EIVLTQSPATLSLSPGERATLSCRASQSVRSYLAWYQQKPGQAPRLLIYDASNRATAIPARFSGSGSGTDFTLTISSLEPEDLAVYYCQQSGNWPLTFGGGTKVEIK lies strictly below 20 min
-1
